Test system: 786-0
procedure.summary: Antiproliferative activity against human 786-0 cells after 48 hrs by sulforhodamine B assay
Assay type: functional
measurement.context: 786-0, 48 h
measured.quantity: log10 GI50 (log10 of the value in µg/mL)

{"smiles.repr": "CCCCCC[C@@H](O)C/C=C\\CCCCCCCC(=O)NCc1ccccc1", "tested.system": "786-0", "measured.quantity": "log10 GI50", "reading": 1.51}
{"smiles.repr": "CCCCCC[C@@H](O)C/C=C\\CCCCCCCC(=O)N1CCCC1", "tested.system": "786-0", "measured.quantity": "log10 GI50", "reading": 0.61}
{"smiles.repr": "CCCCCCCCCCCCCCCCCC(=O)N1CCCC1", "tested.system": "786-0", "measured.quantity": "log10 GI50", "reading": 1.15}
{"smiles.repr": "CCCCCCCCCCCCCCCCCC(=O)N1CCOCC1", "tested.system": "786-0", "measured.quantity": "log10 GI50", "reading": 1.61}
{"smiles.repr": "CCCCCCCC/C=C\\CCCCCCCC(=O)N1CCOCC1", "tested.system": "786-0", "measured.quantity": "log10 GI50", "reading": 0.65}
{"smiles.repr": "CCCCCC[C@@H](O)C/C=C\\CCCCCCCC(=O)N[C@@H](C)c1ccccc1", "tested.system": "786-0", "measured.quantity": "log10 GI50", "reading": 0.83}
{"smiles.repr": "CCCCCCCC/C=C\\CCCCCCCC(=O)N[C@@H](C)c1ccccc1", "tested.system": "786-0", "measured.quantity": "log10 GI50", "reading": 1.01}
{"smiles.repr": "CCCCCCCC/C=C\\CCCCCCCC(=O)NCc1ccccc1", "tested.system": "786-0", "measured.quantity": "log10 GI50", "reading": 2.02}

###

Measured TGI, listed per entry for reference.
Tested on: MCF7
procedure.summary: Antiproliferative activity against human MCF7 cells assessed as tumor growth inhibition after 48 hrs by sulforhodamine B assay
Format: functional
measurement.context: MCF7, 48 h
measured.quantity: TGI (µg/mL)

{"smiles.repr": "CCCCCCCC/C=C\\CCCCCCCC(=O)N1CCCC1", "tested.system": "MCF7", "sign": ">", "reading": 250}
{"smiles.repr": "CCCCC/C=C\\C/C=C\\CCCCCCCC(=O)N1CCCC1", "tested.system": "MCF7", "sign": "=", "reading": 27.5}
{"smiles.repr": "CCCCC/C=C\\C/C=C\\CCCCCCCC(=O)N[C@@H](C)c1ccccc1", "tested.system": "MCF7", "sign": "=", "reading": 38.6}
{"smiles.repr": "CCCCCC[C@@H](O)C/C=C\\CCCCCCCC(=O)N1CCCCC1", "tested.system": "MCF7", "sign": "=", "reading": 14.8}

###

Tested on: 786-0
procedure.summary: Antiproliferative activity against human 786-0 cells after 48 hrs by sulforhodamine B assay
Type: functional
measurement.context: 786-0, 48 h
Note to self: use Yes only for GI50 readings below 10 mg/L; a reading exactly at 10 mg/L still gets No.

{"compound": "CCCCCCCC/C=C\\CCCCCCCC(=O)N[C@H](C)c1ccccc1", "qualitative.label": "No"}
{"compound": "CCCCC/C=C\\C/C=C\\CCCCCCCC(=O)N1CCCC1", "qualitative.label": "Yes"}
{"compound": "CCCCC/C=C\\C/C=C\\CCCCCCCC(=O)N1CCCCC1", "qualitative.label": "No"}
{"compound": "CCCCCCCCCCCCCCCC(=O)N1CCCC1", "qualitative.label": "Yes"}
{"compound": "CCCCCC[C@@H](O)C/C=C\\CCCCCCCC(=O)NCCO", "qualitative.label": "Yes"}
{"compound": "CCCCCC[C@@H](O)C/C=C\\CCCCCCCC(=O)N1CCCCC1", "qualitative.label": "No"}
{"compound": "CCCCCCCC/C=C\\CCCCCCCC(=O)N1CCCCC1", "qualitative.label": "No"}
{"compound": "CCCCC/C=C\\C/C=C\\CCCCCCCC(=O)N[C@@H](C)c1ccccc1", "qualitative.label": "Yes"}
{"compound": "CCCCCCCC/C=C\\CCCCCCCC(=O)NCCO [OLEOYLETHANOLAMIDE]", "qualitative.label": "No"}
{"compound": "CCCCCCCCCCCCCCCC(=O)N1CCOCC1", "qualitative.label": "No"}
{"compound": "CCCCCCCC/C=C\\CCCCCCCC(=O)N1CCCC1", "qualitative.label": "Yes"}
{"compound": "CCCCCC[C@@H](O)C/C=C\\CCCCCCCC(=O)N1CCOCC1", "qualitative.label": "No"}

###

System: HaCaT
procedure.summary: Cytotoxicity against human HaCaT cells assessed as tumor growth inhibition after 48 hrs by sulforhodamine B assay
Assay type: cell-based
Consider the cut-off 50 µg/mL. If the recorded TGI is strictly smaller, the label is label 1; if not, the label is label 0.

{"compound": "CCCCCCCC/C=C\\CCCCCCCC(=O)N1CCOCC1", "tested.system": "HaCaT", "qualitative.label": "label 1"}
{"compound": "CCCCCCCCCCCCCCCCCC(=O)N[C@@H](C)c1ccccc1", "tested.system": "HaCaT", "qualitative.label": "label 0"}
{"compound": "CCCCCCCC/C=C/CCCCCCCC(=O)N[C@@H](C)c1ccccc1", "tested.system": "HaCaT", "qualitative.label": "label 0"}
{"compound": "CCCCCCCC/C=C\\CCCCCCCC(=O)NCCO [OLEOYLETHANOLAMIDE]", "tested.system": "HaCaT", "qualitative.label": "label 0"}
{"compound": "CCCCCCCCCCCCCCCC(=O)NCCO [PALMIDROL]", "tested.system": "HaCaT", "qualitative.label": "label 0"}
{"compound": "CCCCCCCCCCCCCCCCCC(=O)N1CCOCC1", "tested.system": "HaCaT", "qualitative.label": "label 0"}
{"compound": "CCCCCCCC/C=C\\CCCCCCCC(=O)NCc1ccccc1", "tested.system": "HaCaT", "qualitative.label": "label 0"}
{"compound": "CCCCCC[C@@H](O)C/C=C\\CCCCCCCC(=O)N1CCOCC1", "tested.system": "HaCaT", "qualitative.label": "label 0"}
{"compound": "CCCCCCCCCCCCCCCC(=O)N1CCCC1", "tested.system": "HaCaT", "qualitative.label": "label 1"}
{"compound": "CCCCCCCCCCCCCCCC(=O)NCc1ccccc1", "tested.system": "HaCaT", "qualitative.label": "label 0"}
{"compound": "CCCCCCCC/C=C\\CCCCCCCC(=O)N1CCCCC1", "tested.system": "HaCaT", "qualitative.label": "label 1"}

###

# LC50 per entry
Test system: HaCaT
procedure.summary: Cytotoxicity against human HaCaT cells after 48 hrs by sulforhodamine B assay
Format: cell-based

{"compound": "CCCCCCCCCCCCCCCCCC(=O)N1CCOCC1", "tested.system": "HaCaT", "LC50 (µg/mL)": 41.5}
{"compound": "CCCCC/C=C\\C/C=C\\CCCCCCCC(=O)N[C@@H](C)c1ccccc1", "tested.system": "HaCaT", "LC50 (µg/mL)": 1.3}
{"compound": "CCCCCCCCCCCCCCCCCC(=O)NCCO [N-(2-HYDROXYETHYL)STEARAMIDE]", "tested.system": "HaCaT", "LC50 (µg/mL)": 117.7}

###

Tested on: HaCaT
procedure.summary: Cytotoxicity against human HaCaT cells after 48 hrs by sulforhodamine B assay
Type: cell-based
Measured LC50 values are reported for all entries that follow.
measured.quantity: LC50 (µg/mL)

{"compound": "CCCCCCCC/C=C\\CCCCCCCC(=O)NCc1ccccc1", "tested.system": "HaCaT", "value.units": "µg/mL", "reading": 92}
{"compound": "CCCCCCCC/C=C\\CCCCCCCC(=O)NCCO [OLEOYLETHANOLAMIDE]", "tested.system": "HaCaT", "value.units": "µg/mL", "reading": 14.4}
{"compound": "CCCCCCCC/C=C\\CCCCCCCC(=O)N[C@@H](C)c1ccccc1", "tested.system": "HaCaT", "value.units": "µg/mL", "reading": 6.4}
{"compound": "CCCCCCCC/C=C/CCCCCCCC(=O)N[C@@H](C)c1ccccc1", "tested.system": "HaCaT", "value.units": "µg/mL", "reading": 24.6}
{"compound": "CCCCCCCCCCCCCCCCCC(=O)N[C@@H](C)c1ccccc1", "tested.system": "HaCaT", "value.units": "µg/mL", "reading": 69.5}
{"compound": "CCCCC/C=C\\C/C=C\\CCCCCCCC(=O)N1CCCCC1", "tested.system": "HaCaT", "value.units": "µg/mL", "reading": 4.2}

###

System: U-251
procedure.summary: Antiproliferative activity against human U251 cells after 48 hrs by sulforhodamine B assay
Assay type: functional
measurement.context: U-251, 48 h
measured.quantity: GI50 (µg/mL)

{"compound": "CCCCCC[C@@H](O)C/C=C\\CCCCCCCC(=O)NCc1ccccc1", "tested.system": "U-251", "measured.quantity": "GI50", "reading": 8.6}
{"compound": "CCCCCCCC/C=C\\CCCCCCCC(=O)NCCO [OLEOYLETHANOLAMIDE]", "tested.system": "U-251", "measured.quantity": "GI50", "reading": 27.3}
{"compound": "CCCCCC[C@@H](O)C/C=C\\CCCCCCCC(=O)N1CCOCC1", "tested.system": "U-251", "measured.quantity": "GI50", "reading": 33.1}

# credit: ChEMBL document CHEMBL3392966
